targetSystem: Metabotropic glutamate receptor 8 (Rattus norvegicus) (UniProt P70579)
Sequence (P70579 whole entry, looked up): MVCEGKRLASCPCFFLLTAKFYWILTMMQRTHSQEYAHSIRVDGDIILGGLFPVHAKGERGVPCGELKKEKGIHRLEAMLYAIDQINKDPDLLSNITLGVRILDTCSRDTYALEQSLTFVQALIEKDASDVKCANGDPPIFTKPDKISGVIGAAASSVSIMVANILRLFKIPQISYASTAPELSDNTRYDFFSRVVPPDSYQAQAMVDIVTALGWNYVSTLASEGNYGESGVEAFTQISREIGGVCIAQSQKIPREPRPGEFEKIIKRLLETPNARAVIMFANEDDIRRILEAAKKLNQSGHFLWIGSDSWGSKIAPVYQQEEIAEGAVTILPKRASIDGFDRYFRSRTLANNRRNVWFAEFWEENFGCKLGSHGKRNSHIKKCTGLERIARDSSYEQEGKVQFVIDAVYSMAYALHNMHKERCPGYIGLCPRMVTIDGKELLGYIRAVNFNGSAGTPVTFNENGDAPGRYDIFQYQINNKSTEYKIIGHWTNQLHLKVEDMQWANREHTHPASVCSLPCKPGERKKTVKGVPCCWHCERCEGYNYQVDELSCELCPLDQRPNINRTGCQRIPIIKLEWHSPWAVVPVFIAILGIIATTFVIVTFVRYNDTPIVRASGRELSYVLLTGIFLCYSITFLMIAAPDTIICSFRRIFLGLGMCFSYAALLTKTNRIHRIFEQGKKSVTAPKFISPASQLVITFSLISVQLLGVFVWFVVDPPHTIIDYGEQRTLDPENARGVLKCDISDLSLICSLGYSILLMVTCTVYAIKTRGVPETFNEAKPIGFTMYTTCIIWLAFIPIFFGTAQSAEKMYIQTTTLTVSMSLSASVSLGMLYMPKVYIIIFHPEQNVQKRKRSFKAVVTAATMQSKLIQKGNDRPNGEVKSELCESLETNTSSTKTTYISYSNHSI
assayNotes: mGluR8 Gi/Go-coupled signaling modulation – cell-based, rat, thallium flux, HTS, primary screen (AID 488969)
conditionContext: HEK293 rat mGluR8, GIRK thallium flux, FluoZin2; at 10 µM; stronger effect = higher value; submaximal glutamate (EC20) added with thallium
Whole data set: some 110,000 compounds, median “z-score” near -0.1, cut for the highest 2% near 2. This is one part of a sample in which the highest values are shown more often than they occur.
assayReadout: z-score

compound=Cc1cc(N/C(=N\S(=O)(=O)c2ccc(F)cc2F)c2ccccc2)no1 targetsystem="Metabotropic glutamate receptor 8 (Rattus norvegicus) (UniProt P70579)" datavalue=0.0702
compound=O=C(OCc1ccc([N+](=O)[O-])cc1)c1ccc(N2CCCC2)c([N+](=O)[O-])c1 targetsystem="Metabotropic glutamate receptor 8 (Rattus norvegicus) (UniProt P70579)" datavalue=0.344
compound=COc1cccc(CSc2nc3ccccc3[nH]2)c1 targetsystem="Metabotropic glutamate receptor 8 (Rattus norvegicus) (UniProt P70579)" datavalue=2.68
compound=CCOC(=O)CSc1nc(-c2ccc3c(c2)OCO3)ccc1C#N targetsystem="Metabotropic glutamate receptor 8 (Rattus norvegicus) (UniProt P70579)" datavalue=-0.00752
compound=CCCCCCCn1ccc(=N)cc1 targetsystem="Metabotropic glutamate receptor 8 (Rattus norvegicus) (UniProt P70579)" datavalue=-0.268
compound=COc1cccc(-c2nc(-c3ccc(NC(=O)Cc4ccccc4OC)cc3)no2)c1 targetsystem="Metabotropic glutamate receptor 8 (Rattus norvegicus) (UniProt P70579)" datavalue=0.363

The following compounds each have a reported value; give each one's z-score.
1. CCc1nnc(NC(=O)CSc2nc(-c3ccc(F)cc3)cc(-c3ccccc3)c2C#N)s1
2. Oc1ccc2ccccc2c1/C=N/c1nccs1
3. Fc1ccccc1CSc1nc2ccccc2[nH]1
4. Oc1oc(-c2ccccc2)nc1C=Nc1cccc2ccccc12
5. O=C(COC(=O)CCCSc1nc2ccccc2[nH]1)NC(=O)NC1CCCC1
6. C/C(Cn1cnc([N+](=O)[O-])n1)=N\NC(=O)c1ccc(Br)cc1
7. C=CCn1c(-c2cccc(OC)c2)n[nH]c1=S

a:
2.35
0.277
0.129
-0.00127
-0.664
-0.261
-0.21

The following compounds each have a reported value; give each one's z-score.
1. c1ccc(OCCSc2nc3ccccc3[nH]2)cc1
2. CCCCCCn1ccc(=N)cc1
3. Cc1cccc(OCCCSc2nc3ccccc3[nH]2)c1
4. Fc1cccc(F)c1CSc1nc2ccccc2[nH]1
5. COC(=O)c1cccc(CSc2nc3ccccc3[nH]2)c1
6. CN(C(=O)c1ccccn1)c1nnc(-c2cnccn2)s1
7. O=C(Nc1ccc(F)cc1)C(c1ccccc1)N1CCN(C(=O)c2ccco2)CC1 (stereo not given)
8. CN(C(=O)c1ccccn1)c1nnc(-c2ccccn2)s1

a:
[2.69, 0.937, 0.357, -0.786, 0.475, -0.729, -0.404, 2.29]

The following compounds each have a reported value; give each one's z-score.
1. C=CCNC(=O)NC(=O)COC(=O)CCCSc1nc2ccccc2[nH]1
2. CN(C(=O)c1ccccn1)c1nnc(-c2ccncc2)s1
3. COCc1nnc(NC(=O)c2cccs2)s1
4. O=C(NCc1ccco1)c1ccccc1F

a:
1: -0.828; 2: -0.931; 3: -0.0696; 4: 0.717

====

targetSystem: Metabotropic glutamate receptor 8 (Rattus norvegicus)
assayNotes: mGluR8 Gi/Go-coupled signaling modulation – cell-based, rat, thallium flux, HTS, primary screen (AID 488969)
conditionContext: HEK293 rat mGluR8, GIRK thallium flux, FluoZin2; at 10 µM; stronger effect = higher value; submaximal glutamate (EC20) added with thallium
The full ranking holds about 110,000 compounds; the median of “z-score” is about -0.1, and the highest 2% start at about 2. Only a selection was taken, and the highest values are over-represented in it overall.
Quick rule: z-score of at least 0.3 means Met, below that means Not met.

# example entries with known answers
molecule=CC1(C)Cc2ccccc2-c2nnc(SCC(=O)N3CCN(c4ccccc4)CC3)n21 label=Met
molecule=CC1(C)Cc2nc3[nH]c(=S)n(-c4ccccc4)c(=O)c3cc2CO1 label="Not met"
molecule=O=C(Nc1ccccc1)N(C1=NCCCCS1)c1cccc2ccccc12 label="Not met"
molecule="CC(C(=O)N1c2ccccc2CCc2ccccc21)n1nnc(-c2ccc(N(C)C)cc2)n1 (stereo unspecified)" label="Not met"
molecule="CCC(c1nnnn1C(C)(C)C)N(Cc1ccco1)Cc1cc2cccc(C)c2[nH]c1=O (stereo unspecified)" label=Met
molecule=COc1ccccc1OCCNc1nc2c(c(=O)n(C)c(=O)n2C)n1C label=Met
molecule="CCOC(=O)C(NCCCO)c1ccccc1 (stereo unspecified)" label="Not met"
molecule=COc1ccc(OC)c(NC(=O)CSc2nnc(CNC(=O)c3ccco3)o2)c1 label="Not met"

q: Given the entry CCNC(=S)NN=C1CCC(C(C)(C)C)CC1 (stereo unspecified) , answer whether its z-score meets or surpasses 0.3.
a: Met

q: Given the entry Cc1nn(CC(=O)NCc2cccc3ccccc23)c(=O)c2ccccc12 , answer whether its z-score meets or surpasses 0.3.
a: Not met

q: Given the entry CCn1c(=S)[nH]c2nc3c(cc2c1=O)CCCC3 , answer whether its z-score meets or surpasses 0.3.
a: Met

====

targetSystem: Metabotropic glutamate receptor 8 (Rattus norvegicus) (UniProt P70579)
assayNotes: mGluR8 Gi/Go-coupled signaling modulation – cell-based, rat, thallium flux, HTS, primary screen (AID 488969)
conditionContext: HEK293 rat mGluR8, GIRK thallium flux, FluoZin2; at 10 µM; stronger effect = higher value; submaximal glutamate (EC20) added with thallium
Whole data set: some 110,000 compounds, median “z-score” near -0.1, cut for the highest 2% near 2. Many of the other results were omitted from the sample, so the highest values are more common in it than they were.
Quick rule: z-score of at least 0.02 means Criterion met, below that means Criterion not met.

# example entries with known answers
compound=CCOC(=O)c1[nH]cnc1C(=O)NC1CCCCC1 label="Criterion not met"
compound=CC(=O)NC(=S)Nc1ccc(-c2nc3ccc(C)cc3s2)cc1 label="Criterion met"
compound=CCOc1nc(-c2ccc(C)cc2)ccc1-c1noc(COC)n1 label="Criterion not met"
compound=CCOC(=O)c1sc(C)c(C(=O)NCC(C)(C)CN(C)C)c1N label="Criterion met"
compound=COc1ccc2cc(Br)ccc2c1CC(=O)NC(C)(C)C label="Criterion not met"

# ---- query compound ----
q: Given the entry O=C1C2CCCCC2C(=O)N1c1cccc(OS(=O)(=O)c2ccccc2)c1 (stereo unspecified) , answer whether its z-score meets or surpasses 0.02.
a: Criterion not met

====

targetSystem: Metabotropic glutamate receptor 8 (Rattus norvegicus)
assayNotes: mGluR8 Gi/Go-coupled signaling modulation – cell-based, rat, thallium flux, HTS, primary screen (AID 488969)
conditionContext: HEK293 rat mGluR8, GIRK (G protein-gated inwardly rectifying potassium channel) thallium flux, FluoZin2; at 10 µM; stronger effect = higher value; submaximal glutamate (EC20) added with thallium
Over roughly 110,000 compounds, “z-score” has its median near -0.1; the highest 2% begin near 2. This is one part of a sample in which the highest values are shown more often than they occur.
assayReadout: z-score
Numbers only.

The following molecules each have a reported value; give each one's z-score.
1. CCc1ccc(NC(=S)NNC(=O)c2ccccc2OC(F)F)cc1
2. CCSc1ncnc2sc3c(c12)CCC3
3. CN(c1ccccc1)S(=O)(=O)c1ccc(NC(=S)NC(=O)c2ccccc2)cc1
4. Cc1ccc(C(=O)N2CCN(c3ccc([N+](=O)[O-])c(N4CCOCC4)c3)CC2)cc1
5. CN(C1CCCCC1)S(=O)(=O)c1ccc(NC(=O)C2CCCCC2)cc1

a:
[3.63, -0.0891, 3.04, -0.394, -0.089]

The following molecules each have a reported value; give each one's z-score.
1. CN(C1CCCCC1)S(=O)(=O)c1ccc(NC(=S)NC(=O)c2cccs2)cc1
2. Cc1cc(C)n(-c2nc(NCC3CCCO3)c3c4c(sc3n2)COC(C)(C)C4)n1 (stereo not given)
3. O=C(c1sc2cc(F)ccc2c1Cl)N1CCN(c2cccc(Cl)c2)CC1
4. Cc1cc(/C=N\NC(=O)CC(=O)NC2CCCCC2)c(C)n1-c1cccc(Cl)c1Cl
5. Fc1ccccc1NC(=S)NCCc1ccccc1
6. S=C(NCCc1ccccc1)Nc1ccc(Cl)cc1Cl
7. Cc1cccc(C(=O)NC(=S)Nc2ccc(S(=O)(=O)N(C)c3ccccc3)cc2)c1

a:
[2.93, -2, -0.403, -0.438, 0.134, 1.43, 1.39]

The following molecules each have a reported value; give each one's z-score.
1. CCCCN(C)C1=CC2=CC(=C(C#N)C#N)CCC2CC1 (stereo not given)
2. CCOC(=O)c1c(NC(=O)c2ccco2)sc2c1CCCCC2
3. CC(C)OC(=O)c1c(NC(=O)c2ccco2)sc2c1CCCCC2
4. O=C(Nc1ccc(S(=O)(=O)NCc2ccccc2)cc1)c1ccc(Br)o1

a:
1: 5.11; 2: -0.506; 3: -0.501; 4: 0.32

The following molecules each have a reported value; give each one's z-score.
1. Fc1ccc(NC(=S)NCCc2ccccc2)c(F)c1F
2. O=C(NC(=S)Nc1cccc(Cl)c1N1CCCC1)c1ccc(-c2cccc([N+](=O)[O-])c2)o1
3. S=C(NCCc1ccccc1)Nc1ccc(Br)cc1

a:
1. 2.71
2. 4.93
3. 0.268
